Quick reference: Fold Increase of the listed items.
System: E. coli cells transcribing antisense RNA to rplL and rplJ (AS-rplL/J)
Assay: microbe, parasite or virus in culture
Type: cell-based
Conditions: IC50 without IPTG vs IC50 with 400 μM IPTG
Positions of bridges follow the written chain, without caps; N, C: chain ends. Non-standard residues stand in square brackets, D forms with d. Residues, ends and D or L forms follow the SMILES beside them. *: point of attachment. Ileψ(thiazoline)Cys = CC[C@H](C)[C@H](N)C1=N[C@H](C(=O)*)CS1; dOrn = NCCC[C@@H](N)C(=O)O
// keep it numeric: no unit symbol after the value

# count of solved cases: 3
CC[C@H](C)[C@H](N)C1=N[C@H](C(=O)N[C@@H](CC(C)C)C(=O)N[C@H](CCC(=O)O)C(=O)N[C@H](C(=O)N[C@H]2CCCCNC(=O)[C@H](CC(N)=O)NC(=O)[C@@H](CC(=O)O)NC(=O)[C@H](Cc3cnc[nH]3)NC(=O)[C@@H](Cc3ccccc3)NC(=O)[C@H]([C@@H](C)CC)NC(=O)[C@@H](CCCN)NC2=O)[C@@H](C)CC)CS1 [Bacitracin] ({Ileψ(thiazoline)Cys}-L[dE]IK[dOrn]I[dF]H[dD]N; lactam 4-C) :: 1
CO/N=C(\C(=O)N[C@@H]1C(=O)N2C(C(=O)O)=C(COC(C)=O)CS[C@H]12)c1csc(N)n1 :: 1
CO[C@@]1(NC(=O)Cc2cccs2)C(=O)N2C(C(=O)O)=C(COC(N)=O)CS[C@@H]21 :: 1

Consider the additional molecule presented here.
Lab note: measured Fold Increase of CC(=O)O[C@H]1C[C@@]2(C)[C@@H](C[C@@H](O)[C@H]3[C@@]4(C)CC[C@@H](O)[C@@H](C)[C@@H]4CC[C@@]32C)/C1=C(\CCC=C(C)C)C(=O)O was 94

* * *

Tested on: E. coli cells transcribing antisense RNA to rplL and rplJ (AS-rplL/J)
Assay: microbe, parasite or virus in culture
Assay type: cell-based
Conditions: IC50 without IPTG vs IC50 with 400 μM IPTG
property.name: Fold Increase
// keep it numeric: no unit symbol after the value

[H]/N=C(/N)N[C@H]1[C@H](O)[C@@H](O)[C@H](O[C@@H]2O[C@@H](C)[C@](O)(C=O)[C@H]2O[C@@H]2O[C@@H](CO)[C@H](O)[C@@H](O)[C@@H]2NC)[C@@H](N/C(N)=N\[H])[C@@H]1O :: 70
NC[C@H]1O[C@H](O[C@H]2[C@H](O)[C@@H](O[C@H]3O[C@H](CO)[C@@H](O)[C@H](N)[C@H]3O)[C@H](N)C[C@@H]2N)[C@H](N)C[C@@H]1O :: 51
CCn1cc(C(=O)O)c(=O)c2ccc(C)nc21 :: 1
CC[C@H]1OC(=O)[C@H](C)[C@@H](O[C@H]2C[C@@](C)(OC)[C@@H](O)[C@H](C)O2)[C@H](C)[C@@H](O[C@@H]2O[C@H](C)C[C@H](N(C)C)[C@H]2O)[C@](C)(O)C[C@@H](C)C(=O)[C@H](C)[C@@H](O)[C@]1(C)O :: 40
CCC[C@@H]1C[C@@H](C(=O)N[C@@H]([C@H]2O[C@H](SC)[C@H](O)[C@@H](O)[C@H]2O)[C@@H](C)O)N(C)C1 :: 145

Consider the additional compound presented here.
Lab note: measured Fold Increase of CC1COc2c(N3CCN(C)CC3)c(F)cc3c(=O)c(C(=O)O)cn1c23 (stereo not drawn) was 1

// provenance: patent US20030170694A1
